Each item that follows carries a reported inhibition at 1 µM.
# System name: autotaxin (Homo sapiens, UniProt Q13822)
# Construct: purchased Cayman 10803
# Assay method text: Autotaxin inhibitor screening assay (choline release from LPC)
# Format: biochemical
# Condition summary: inhibition of autotaxin enzyme activity at 1 μM compound; 100 μM 14:0 LPC; read-out: Inhibition
# Protocol: Autotaxin activity was measured by choline release from LPC in presence or absence of compound. Twenty (20) ng autotaxin (10803, Cayman, MI, USA) was incubated with 100 μM 14:0 LPC (855575P, Avanti, AL, USA) in a final volume of 100 μL buffer containing 50 mM Tris pH 8.0, 0.01% Triton X-100, 50 mM CaCl2, 1 unit/ml choline oxidase, 2 unit/ml HRP, 2 mM homovanilic acid (HVA). The relative amount of released choline was measured by HVA fluorescence in a 96-well plate. […]

[
  {
    "Compound": "CN(C(=O)OCc1cc(Cl)cc(Cl)c1)C1CCc2ccc(C3=CCN(CC(=O)N4CCS(=O)(=O)CC4)CC3)cc21 (stereo not drawn) [Compound 16]",
    "inhibition at 1 µM": "50 to 80%"
  },
  {
    "Compound": "O=C(Nc1noc2ccc(C3=CCN(C(=O)CN4C(=O)CSC4=S)CC3)cc12)OCc1cc(Cl)cc(Cl)c1 [Compound 127]",
    "inhibition at 1 µM": "50 to 80%"
  },
  {
    "Compound": "CN(C(=O)OCc1cc(Cl)cc(Cl)c1)c1csc2ccc(C3=CCN(C(=O)CN4C(=O)CSC4=S)CC3)cc12 [Compound 85]",
    "inhibition at 1 µM": "> 80%"
  },
  {
    "Compound": "CN(CCOc1ccc(F)cc1F)C1CCCc2ccc(N3CCN(CC(=O)N4CC(O)C4)CC3)cc21 (stereo not drawn) [Compound 74]",
    "inhibition at 1 µM": "< 50%"
  },
  {
    "Compound": "CCC1Cc2ccc(C3=CCN(C(=O)CN4C(=O)CSC4=S)CC3)cc2C1N(C)C(=O)OCc1cc(Cl)cc(Cl)c1 (stereo not drawn) [Compound 119]",
    "inhibition at 1 µM": "50 to 80%"
  },
  {
    "Compound": "CCN(C(=O)OCc1cc(Cl)cc(Cl)c1)c1noc2ccc(C3=CCN(C(=O)CN4C(=O)CSC4=S)CC3)cc12 [Compound 129]",
    "inhibition at 1 µM": "50 to 80%"
  }
]
